Tested on: Gram-Negative Organisms
Experiment: microbe, parasite or virus in culture
Format: cell-based
Conditions: Escherichia coli, read-out: Minimal Inhibitory Concentration (MIC), E. coli BAS2006, OMP C, OMP F
resultType: MIC

These recorded examples may help you get a feel for the data.
molecule: CC1=C\[C@@H](O)CC(=O)Cc2nc(co2)C(=O)N[C@H](CCCCN)C(=O)O[C@H](C(C)C)[C@H](C)/C=C/C(=O)NC\C=C\1
MIC: > 64 µg/mL
//
molecule: CC1=C\[C@@H](O)CC(=O)Cc2nc(co2)C(=O)N2CCC=C2C(=O)O[C@H](C(C)C)[C@H](C)/C=C/C(=O)NC\C=C\1 [virginiamycin M1, Virginiamycin M1, reference compound]
MIC: > 64 µg/mL
//
molecule: CC1=C\[C@@H](O)CC(=O)Cc2nc(co2)C(=O)N2CCC[C@@H]2C(=O)O[C@H](C(C)C)[C@H](C)/C=C/C(=O)NC\C=C\1 [virginiamycin M2, Virginiamycin M2, reference compound]
MIC: 2 µg/mL
//
molecule: CC1=C\[C@@H](O)C[C@@H](F)Cc2nc(co2)C(=O)N2CCC[C@@H]2C(=O)O[C@H](C(C)C)[C@H](C)/C=C/C(=O)NC\C=C\1 [flopristin, reference compound]
MIC: 0.25 µg/mL
//
molecule: CC(C)[C@H]1OC(=O)[C@H]2CCCN2C(=O)c2coc(n2)CC(=O)C[C@H](O)/C=C/C=C/CNC(=O)/C=C/[C@H]1C
MIC: 64 µg/mL

For every record below, what is its MIC?
1. CC1=C\[C@@H](O)C[C@@H](O)Cc2nc(co2)C(=O)N[C@H](C)C(=O)O[C@H](C(C)C)[C@H](C)/C=C/C(=O)NC\C=C\1 [madumycin II, Madumycin II, reference compound]
2. CC1=C\[C@@H](O)CC(=O)Cc2nc(co2)C(=O)N2CCC[C@@H]2C(=O)O[C@H]([C@H](C)COC(=O)Nc2cc(C)on2)[C@H](C)/C=C/C(=O)NC\C=C\1
3. CC1=C\[C@@H](O)CC(=O)Cc2nc(co2)C(=O)N[C@H](Cc2ccccc2)C(=O)O[C@H](C(C)C)[C@H](C)/C=C/C(=O)NC\C=C\1
4. CC1=C\[C@@H](O)CC(=O)Cc2nc(co2)C(=O)N2CCC[C@@H]2C(=O)O[C@H]([C@H](C)COC(=O)Nc2coc(C)n2)[C@H](C)/C=C/C(=O)NC\C=C\1

# output
["1 µg/mL", "> 64 µg/mL", "16 µg/mL", "> 64 µg/mL"]

Kindly give each listed record's MIC.
1. CC1=C\[C@@H](O)CC(=O)Cc2nc(c([Si](C)(C)C)o2)C(=O)N2CCC[C@@H]2C(=O)O[C@H](C(C)C)[C@H](C)/C=C/C(=O)NC\C=C\1
2. CC1=C\[C@@H](O)CC(=O)Cc2nc(co2)C(=O)N[C@H](Cc2ccc(O)cc2)C(=O)O[C@H](C(C)C)[C@H](C)/C=C/C(=O)NC\C=C\1

# output
1. > 64 µg/mL
2. > 64 µg/mL
